Exercise: for every item that follows, state its recorded log2 fold change of degron read counts.
# Target or test system: T1, CRBN, Q96SW2;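 further: pooled lentiviral library of zinc finger degron-EGFP fusions in mCherry-positive Jurkat cells, FACS-sorted after compound exposure, with degron abundance counted by next-generation sequencing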
# T1 chain: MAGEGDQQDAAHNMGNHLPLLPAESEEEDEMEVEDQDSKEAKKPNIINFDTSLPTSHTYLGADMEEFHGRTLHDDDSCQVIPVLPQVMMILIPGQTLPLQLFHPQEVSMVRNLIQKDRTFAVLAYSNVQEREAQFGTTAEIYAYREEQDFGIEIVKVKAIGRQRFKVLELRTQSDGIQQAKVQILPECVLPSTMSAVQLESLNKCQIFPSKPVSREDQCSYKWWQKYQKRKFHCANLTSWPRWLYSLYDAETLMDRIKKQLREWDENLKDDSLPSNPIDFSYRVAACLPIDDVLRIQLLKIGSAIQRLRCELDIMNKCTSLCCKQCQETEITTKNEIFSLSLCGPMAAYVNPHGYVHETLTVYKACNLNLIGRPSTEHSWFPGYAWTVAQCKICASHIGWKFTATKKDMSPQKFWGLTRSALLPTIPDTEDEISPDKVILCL
# Test details: log2 fold change of degron read counts, EGFP-low vs EGFP+ sorted cells (limma voom), compound-induced degradation; higher = more compound-induced degradation of the degron-EGFP fusion; degrons are variants of IKZF1/3 zinc finger 2; compound dose not given here
# Condition set: Jurkat; 18 h; compound: thalidomide
Whole data set: some 8,300 sequences, median “log2 fold change of degron read counts, EGFP-low vs EGFP+ sorted cells (limma voom), compound-induced degradation” near -1.1, cut for the highest 2% near 3.2. Many of the other results were omitted from the sample, so the highest values are more common in it than they were.
# respond with the number and nothing more

Query string: Dear colleague, I am looking for the recorded log2 fold change of degron read counts of the following sequence: LNCPICGFSCTQKGNLLRHIKL [46L_47N_49P_50I_52G_53F_54S_55C_67L_, Q9UKT9]
Result string: 2

Query string: Dear colleague, I am looking for the recorded log2 fold change of degron read counts of the following sequence: FDCPVCGARFTQKGNLLRHIKL [46F_47D_49P_50V_52G_53A_54R_55F_67L_, Q9UKT9]
Result string: 2.71

Query string: Dear colleague, I am looking for the recorded log2 fold change of degron read counts of the following sequence: FYCEICGRCFTQKGNLLRHIKL [46F_47Y_49E_50I_52G_53R_54C_55F_67L_, Q9UKT9]
Result string: -0.963

Query string: Dear colleague, I am looking for the recorded log2 fold change of degron read counts of the following sequence: FSCDVCGAEFTQKGNLLRHIKL [46F_47S_49D_50V_52G_53A_54E_55F_67L_, Q9UKT9]
Result string: -1.96

Query string: Dear colleague, I am looking for the recorded log2 fold change of degron read counts of the following sequence: FACPQCGAAFTQKGNLLRHIKL [46F_47A_49P_50Q_52G_53A_54A_55F_67L_, Q9UKT9]
Result string: -1.04

Query string: Dear colleague, I am looking for the recorded log2 fold change of degron read counts of the following sequence: FWCNICGACFTQKGNLLRHIKL [46F_47W_49N_50I_52G_53A_54C_55F_67L_, Q9UKT9]
Result string: 0.445

Query string: Dear colleague, I am looking for the recorded log2 fold change of degron read counts of the following sequence: FSCNICGACFTQKGNLLRHIKL [46F_47S_49N_50I_52G_53A_54C_55F_67L_, Q9UKT9]
Result string: 1.06

Query string: Dear colleague, I am looking for the recorded log2 fold change of degron read counts of the following sequence: FYCPICGHYFTQKGNLLRHIKL [46F_47Y_49P_50I_52G_53H_54Y_55F_67L_, Q9UKT9]
Result string: -1.13

Query string: Dear colleague, I am looking for the recorded log2 fold change of degron read counts of the following sequence: FYCEVCGASFTQKGNLLRHIKL [46F_47Y_49E_50V_52G_53A_54S_55F_67L_, Q9UKT9]
Result string: 1.59

Query string: Dear colleague, I am looking for the recorded log2 fold change of degron read counts of the following sequence: FYCNICGACFTQKGNLLRHIKL [46F_47Y_49N_50I_52G_53A_54C_55F_67L_, Q9UKT9]
Result string: 0.278

Query string: Dear colleague, I am looking for the recorded log2 fold change of degron read counts of the following sequence: FHCEVCGASFTQKGNLLRHIKL [46F_47H_49E_50V_52G_53A_54S_55F_67L_, Q9UKT9]
Result string: 0.198

Query string: Dear colleague, I am looking for the recorded log2 fold change of degron read counts of the following sequence: FICEVCGASFTQKGNLLRHIKL [46F_47I_49E_50V_52G_53A_54S_55F_67L_, Q9UKT9]
Result string: 2.95

Query string: Dear colleague, I am looking for the recorded log2 fold change of degron read counts of the following sequence: FKCNICGACFTQKGNLLRHIKL [46F_47K_49N_50I_52G_53A_54C_55F_67L_, Q9UKT9]
Result string: -1.43

Query string: Dear colleague, I am looking for the recorded log2 fold change of degron read counts of the following sequence: FACNVCGASFTQKGNLLRHIKL [46F_47A_49N_50V_52G_53A_54S_55F_67L_, Q9UKT9]
Result string: -1.16

Query string: Dear colleague, I am looking for the recorded log2 fold change of degron read counts of the following sequence: LCCPICGFSCTQKGNLLRHIKL [46L_47C_49P_50I_52G_53F_54S_55C_67L_, Q9UKT9]
Result string: 3.11

Query string: Dear colleague, I am looking for the recorded log2 fold change of degron read counts of the following sequence: LVCPICGFSCTQKGNLLRHIKL [46L_47V_49P_50I_52G_53F_54S_55C_67L_, Q9UKT9]
Result string: 3.59

Query string: Dear colleague, I am looking for the recorded log2 fold change of degron read counts of the following sequence: LRCPICGFSCTQKGNLLRHIKL [46L_47R_49P_50I_52G_53F_54S_55C_67L_, Q9UKT9]
Result string: 2.71

Query string: Dear colleague, I am looking for the recorded log2 fold change of degron read counts of the following sequence: FCCNVCGASFTQKGNLLRHIKL [46F_47C_49N_50V_52G_53A_54S_55F_67L_, Q9UKT9]
Result string: 0.32
